# credit: ChEMBL document CHEMBL4673372

Parameter MIC: see the listing below.
System: Candida albicans
EXPERIMENT: Antifungal activity against Candida albicans MTCC 854
Assay type: functional

Lookup: Name the recorded MIC of the compound listed here: COc1ccc(-n2cc(COc3ccc(/C=N/Nc4nc(-c5cc6cccc(OC)c6oc5=O)cs4)cc3)nn2)cc1
Found: > 215 µM

Lookup: Name the recorded MIC of the compound listed here: COc1ccc(-n2cc(COc3ccc(/C=N/Nc4nc(-c5cc6cc([N+](=O)[O-])cc([N+](=O)[O-])c6oc5=O)cs4)cc3)nn2)cc1
Found: > 195 µM

Lookup: Name the recorded MIC of the compound listed here: COc1ccc(-n2cc(COc3ccc(/C=N/Nc4nc(-c5cc6cc(Br)cc(OC)c6oc5=O)cs4)cc3)nn2)cc1
Found: > 190 µM

* * *

Parameter MIC: see the listing below.
Tested on: Staphylococcus aureus
EXPERIMENT: Antibacterial activity against Staphylococcus aureus MLS16 MTCC 2940 assessed as inhibition of bacterial growth by microtiter broth dilution method
Type: functional

INSERT INTO assay_data (structure_notation, property_name, result) VALUES
  ('COc1ccc(-c2csc(N/N=C/c3ccc(OCc4cn(-c5ccc(OC)cc5)nn4)cc3)n2)cc1', 'MIC', '> 244 µM');

Lookup: Name the recorded MIC of the molecule listed here: COc1ccc(-n2cc(COc3ccc(/C=N/Nc4nc(-c5ccccc5)cs4)cc3)nn2)cc1
Found: > 259 µM

Lookup: Name the recorded MIC of the molecule listed here: O=C(O)c1cn(C2CC2)c2cc(N3CCNCC3)c(F)cc2c1=O
Found: 2.7 µM
